This collection of values is drawn from PubChem BioAssay AID827.

experiment: viability loss in PTEN-deleted colon tumor cells – cell-based, HCT116, CellTiter-Glo, primary screen (AID 827); details: HCT116 PTEN-null viability, 60 h, at 10 µM;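 also: PTEN knockout HCT116 line with beta catenin targeted HCT116 as companion control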
About 1,700 (1.2%) of roughly 140,000 compounds were called active.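 The calls were made as follows: active = viability at or below a set limit, 4 SD under the median of all tested compounds (cut at about 3.7% in these data); inactive = the rest.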 The full list was thinned out, with actives kept by preference.
Outcomes: y for active, n for inactive

COMPOUND	CATEGORY LABEL
CC(C)(C)NCCCOc1ccc(Cl)cc1C(C)(C)C	n
Cc1ccc(C(=O)N2CC(=O)Nc3ccccc32)o1	n
O=C(NNC1=NCCC1)c1cccc(S(=O)(=O)N2CCCCC2)c1	n
COc1cccc(CNCCc2c[nH]c3ccccc23)c1OCc1ccccc1F	y
CCCCN(C)CCC(=O)Nc1ccc(Cl)cc1	n
COc1ccc(N2C(=O)C(CC(=O)Nc3ccc(F)cc3)N(CCc3cccs3)C2=O)cc1 (stereo unspecified)	n
CN(C)S(=O)(=O)c1cc(NC(=O)CN2C(=O)NC3(CCCc4ccccc43)C2=O)ccc1Cl (stereo unspecified)	n
CC(C)CCN1C(=O)c2ccc(C(=O)Nc3cccc(S(N)(=O)=O)c3)cc2C1=O	n
COc1ccc(C(CCNCc2ccccc2F)c2ccc(F)cc2)cc1 (stereo unspecified)	n
COc1ccc(/C=C2/C(=O)OCc3cc(OC)c(OC)cc32)c(OC)c1	n
COc1ccccc1NC(=O)CCCc1c[nH]c2ccccc12	n

----------
assay: viability loss in PTEN-deleted colon tumor cells – cell-based, HCT116, CellTiter-Glo, primary screen (AID 827); conditions: HCT116 PTEN-null viability, 60 h, at 10 µM, active compounds read low;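 also: PTEN knockout HCT116 line with beta catenin targeted HCT116 as companion control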
Among all 140,000 compounds or so, about 1,700 (1.2%) were called active. This excerpt belongs to a sample that is enriched for actives.
EXPERIMENTAL ENDPOINT: viability (%)

COMPOUND	EXPERIMENTAL ENDPOINT	MEASURED VALUE
CCOc1ccccc1C1CC(c2cccc(NS(C)(=O)=O)c2)=NN1C(=O)c1ccccc1 (stereo unspecified)	viability	84.5
CSCCC(NC(=O)COc1ccccc1)C(=O)Nc1ccc(C)cc1 (stereo unspecified)	viability	96.1
Cc1cc(-c2n[nH]c(=S)n2/N=C/C(Br)=C/c2ccccc2)n[nH]1	viability	1.39
CCOc1cc(/C=N/NC(=O)OC)ccc1OCCSc1ccc(Cl)cc1	viability	93.7
CCCNC(=O)OC[C@H]1O[C@H](CCO/N=C/[C@@H](NS(=O)(=O)c2ccc(C)cc2)[C@H](C)/C=C/CC(=O)OC)C=C[C@@H]1Oc1ccc(OC)cc1	viability	0.23
O=C(/C=C\c1cn(-c2ccccc2)nc1-c1cccs1)N1CCOCC1	viability	67.3
CCOCCCNC(=O)C(=O)NCCCOCC	viability	102
CCOC(=O)/C(=C\c1ccc([N+](=O)[O-])cc1)C(=O)c1cc(C(C)=O)c(Nc2ccccc2)s1	viability	1.45
CCOc1cc(N2CCOCC2)c(OCC)cc1NC(=O)COc1cccc2cccnc12	viability	3.59
O=C(Cn1cnc2ccccc21)N/N=C/c1ccco1	viability	97.9
COc1ccc2nc(NC(=O)[C@@H]3CCCN3C(=O)c3cccs3)sc2c1	viability	85.2
Cc1cccc(NC(=O)c2sc(-c3ccccc3)nc2-c2ccc([N+](=O)[O-])cc2)c1	viability	73.5
CSCC[C@H](NC(=O)OC(C)(C)C)C(=O)N/N=C/c1cc2ccc(C)cc2nc1Cl	viability	1.55
S=c1[nH]nc(-c2cccnc2)n1/N=C/C(Cl)=C\c1ccccc1	viability	8.01
CCCC(=O)Nc1ccc(C(=O)N/N=C/c2ccc[nH]2)cc1	viability	80.1
Cc1ccc(C(=O)NCC2CCCO2)o1 (stereo unspecified)	viability	101
Cc1ccc(S(=O)(=O)N2CCN(CC(=O)N/N=C/c3cc([N+](=O)[O-])ccc3Cl)CC2)cc1	viability	74.4
O=C(Nc1ccc2c(c1)OCO2)c1ccc(N2C(=O)c3ccccc3C2=O)cc1	viability	93.1
O=C(NCCc1ccccc1)C1CCC(Cn2c(=O)c3ccccc3n(Cc3cccnc3)c2=O)CC1 (stereo unspecified)	viability	63.7
OC(CNCC1CCCO1)Cn1c2ccc(Br)cc2c2cc(Br)ccc21 (stereo unspecified)	viability	1.31
C=CCOc1ccc(/C=N/NC(=O)C(C)Sc2ccccn2)cc1OCC (stereo unspecified)	viability	103
